# System Name: human ether-à-go-go-related gene (hERG) potassium channel (human);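 note: peak tail current of the secondary pulse compared with the same well before compound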
# Sequence (Q12809 whole entry, looked up): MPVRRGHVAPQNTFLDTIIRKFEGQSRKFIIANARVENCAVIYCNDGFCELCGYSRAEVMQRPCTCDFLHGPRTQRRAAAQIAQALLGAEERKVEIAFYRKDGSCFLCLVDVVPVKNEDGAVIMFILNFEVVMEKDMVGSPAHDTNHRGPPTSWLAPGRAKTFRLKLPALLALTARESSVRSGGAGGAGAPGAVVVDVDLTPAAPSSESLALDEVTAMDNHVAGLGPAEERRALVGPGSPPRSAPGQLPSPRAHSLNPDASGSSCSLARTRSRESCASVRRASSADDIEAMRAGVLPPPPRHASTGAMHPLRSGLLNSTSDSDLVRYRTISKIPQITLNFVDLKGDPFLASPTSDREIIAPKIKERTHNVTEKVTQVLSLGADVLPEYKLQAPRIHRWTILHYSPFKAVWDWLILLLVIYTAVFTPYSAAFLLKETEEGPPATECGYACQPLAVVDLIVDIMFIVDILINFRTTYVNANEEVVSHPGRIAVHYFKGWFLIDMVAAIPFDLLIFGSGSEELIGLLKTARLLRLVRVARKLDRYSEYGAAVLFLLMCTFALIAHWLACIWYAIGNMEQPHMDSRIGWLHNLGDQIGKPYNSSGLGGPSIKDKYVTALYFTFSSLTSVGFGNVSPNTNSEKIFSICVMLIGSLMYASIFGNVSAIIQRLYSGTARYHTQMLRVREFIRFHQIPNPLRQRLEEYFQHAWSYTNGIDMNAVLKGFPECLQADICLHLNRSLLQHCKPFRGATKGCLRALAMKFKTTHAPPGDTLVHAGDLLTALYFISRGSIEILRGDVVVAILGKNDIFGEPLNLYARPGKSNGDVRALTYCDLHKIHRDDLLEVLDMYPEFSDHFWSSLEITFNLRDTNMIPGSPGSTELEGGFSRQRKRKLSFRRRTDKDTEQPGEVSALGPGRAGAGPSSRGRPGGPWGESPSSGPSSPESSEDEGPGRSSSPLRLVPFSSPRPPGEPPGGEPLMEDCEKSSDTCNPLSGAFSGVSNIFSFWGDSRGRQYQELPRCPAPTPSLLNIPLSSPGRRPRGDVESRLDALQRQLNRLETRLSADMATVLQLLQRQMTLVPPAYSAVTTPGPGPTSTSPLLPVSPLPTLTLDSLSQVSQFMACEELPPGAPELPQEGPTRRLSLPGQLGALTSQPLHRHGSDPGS
# Measurement Description: primary screen, population patch clamp on CHO cells stably expressing hERG; higher = less effect of the substance
Screen size: about 310,000 compounds; about 14,000 (4.5%) showed an effect of 50% or more. The effect is printed as a negative number. The entries come from a sample that favours strong results as a whole.
Observable: hERG current change (%, negative = inhibition) at 10uM (%)
// note: answer is a bare numeric in %

Exercise: Supply hERG current change (%, negative = inhibition) at 10uM measured with human ether-à-go-go-related gene (hERG) potassium channel (human) for `CCCN(C(=O)c1cnccn1)c1c(N)n(Cc2ccccc2)c(=O)[nH]c1=O` .
Key: 0.0848

Exercise: Please report the measured hERG current change (%, negative = inhibition) at 10uM for CC1=CC(C/C(C)=C/COc2ccc3ccc(=O)oc3c2)OC1=O (centres unmarked) tested on human ether-à-go-go-related gene (hERG) potassium channel (human).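 Note: peak tail current of the secondary pulse compared with the same well before compound.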
Key: 2.36

Exercise: Find the measured hERG current change (%, negative = inhibition) at 10uM of `FC(F)(F)c1ccccc1Nc1nccs1` with human ether-à-go-go-related gene (hERG) potassium channel (human) as test system.
Key: -16.1

Exercise: # assay system human ether-à-go-go-related gene (hERG) potassium channel (human): give hERG current change (%, negative = inhibition) at 10uM of `O=C(CCn1c(=O)[nH]c2ccccc2c1=O)Nc1ccccc1`;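 note: peak tail current of the secondary pulse compared with the same well before compound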
Key: 16.4

Exercise: Output reported hERG current change (%, negative = inhibition) at 10uM of the compound COc1cccc(C2(c3cccc(OC)c3)CC2C(=O)Nc2ccccc2Cl)c1 (centres unmarked) on human ether-à-go-go-related gene (hERG) potassium channel (human).
Key: 14

Where these numbers come from: paper PMC4336329
